# Test system: OVCAR-4 ovarian
# ASSAY_NAME: NCI-60 one-dose screen, 48 h (100 = growth as untreated, 0 = no growth, -100 = all killed)
# CONDITIONS: 10 µM unless noted
Compounds without any hit were thinned out: in the full panel of roughly 83,000, 20% have a hit. The source made the active and inactive calls. How the source made its calls: active means growth percent below 10; inactive means the rest.
The reader will find reported growth values listed item by item below.

| MOLECULAR_STRING | growth |
| --- | --- |
| Nc1c(Cl)cccc1[N+](=O)[O-] | 111% (inactive) |
| C[N+](C)(CCOC(c1ccccc1)c1ccccc1)CC(=O)OCc1ccccc1 | 93.5% (inactive) |
| c1cc[n+](Cc2c3ccccc3cc3c2ccc2ccccc23)cc1 | 34.4% (inactive) |
| O=C(Nc1ccc(-c2ccnc(Nc3ccc(N4CCOCC4)cc3)n2)cc1)[C@@H]1CCCN1 | 71.4% (inactive) |

The reported measurements were obtained from PubChem BioAssay (NCI).
